Test system: Salmonella typhimurium NCTC 74
Experiment: Nitroreductase detection on Columbia agar, colonies read under UV
Type: cell-based
Parameters: key: fluorescence (intensity), Salmonella typhimurium NCTC 74 / Intensity of the fluorescence, Salmonella typhimurium NCTC 74: − = no fluorescence detected; +/− = weak fluorescence; + = medium fluorescence; ++ = strong fluorescence
Settings: 100 mg/l in Columbia agar, 24 h 37° C., UV 360-365 nm
Procedure: A mass of 40 mg of each substrate was dissolved in 4 ml of dimethylformamide (DMF). This solution was entirely taken up in 400 ml of Columbia agar autoclaved beforehand and kept molten at 50° C. The final concentration for each substrate was 100 mg/l. […] 18 microorganism strains derived from collections and belonging to various species of bacteria and of yeasts were inoculated onto these media by semi-quantitative isolation of 10 μl of a suspension at 0.5 McFarland diluted to 1/20. […]
property measured: Intensity of fluorescence, Salmonella typhimurium NCTC 74

* O=[N+]([O-])c1ccccc1-c1nc2cc(Cl)ccc2o1 [Substrate 2] | −
* COc1cc(-c2nc3ccccc3o2)c([N+](=O)[O-])cc1OC [Substrate 6] | −
* O=[N+]([O-])c1ccccc1-c1nc2ccccc2n1CCc1ccccc1 [Substrate 12] | −
* O=[N+]([O-])c1ccc(F)cc1-c1nc2ccccc2o1 [Substrate 7] | ++

# context switch: different molecule, same Intensity of fluorescence, Salmonella typhimurium NCTC 74
The molecule O=[N+]([O-])c1ccc(F)cc1-c1nc2ccccc2s1 [Substrate 15] showed Intensity of fluorescence, Salmonella typhimurium NCTC 74 equal to ++

----------
test system: Salmonella typhimurium NCTC 74; assay: Nitroreductase detection on Columbia agar, colonies read under UV; format: cell-based; settings: table 2
property measured: Salmonella typhimurium result with the substrate

• O=[N+]([O-])c1ccccc1-c1nc2ccccc2n1CCc1ccccc1 [Substrate 12] = negative
• O=[N+]([O-])c1ccccc1-c1nc2cc(Cl)ccc2o1 [Substrate 2] = negative
• O=[N+]([O-])c1ccc(F)cc1-c1nc2ccccc2s1 [Substrate 15] = strongly positive
• COc1cc(-c2nc3ccccc3o2)c([N+](=O)[O-])cc1OC [Substrate 6] = negative

# context switch: different compound, same Salmonella typhimurium result with the substrate
The compound O=[N+]([O-])c1ccc(F)cc1-c1nc2ccccc2o1 [Substrate 7] showed Salmonella typhimurium result with the substrate equal to strongly positive

----------
test system: Escherichia coli NCTC 10418; assay: Nitroreductase detection on Columbia agar, colonies read under UV; type: cell-based; set-up: key: − = no fluorescence detected; +/− = weak fluorescence; + = medium fluorescence; ++ = strong fluorescence; conditions: 100 mg/l in Columbia agar, 24 h 37° C., UV 360-365 nm
property measured: Intensity of fluorescence, Escherichia coli NCTC 10418

- O=[N+]([O-])c1ccc(F)cc1-c1nc2ccccc2o1 [Substrate 7]: ++
- O=[N+]([O-])c1ccccc1-c1nc2ccccc2n1CCc1ccccc1 [Substrate 12]: −
- O=[N+]([O-])c1ccccc1-c1nc2cc(Cl)ccc2o1 [Substrate 2]: +^1
- O=[N+]([O-])c1ccc(F)cc1-c1nc2ccccc2s1 [Substrate 15]: ++

# context switch: different compound, same Intensity of fluorescence, Escherichia coli NCTC 10418
The compound COc1cc(-c2nc3ccccc3o2)c([N+](=O)[O-])cc1OC [Substrate 6] showed Intensity of fluorescence, Escherichia coli NCTC 10418 equal to +
